target: UniProtKB P11229; experiment: Alphascreen Surefire phospho-ERK1/2 functional assay, M1; assay type: cell-based; conditions: CHO, read-out: % Emax cf. ACh, M1, CHO cells stably expressing human M1; relative to ACh
Provide the reported Emax of each item.
One number for each entry, in %.

Return reported Emax values for all items listed beneath this line.
1. CCOC(=O)N1CCC2(CC(N3CCC(c4cc(N)n[nH]4)CC3)C2)C1 (single isomer, unassigned) [1-19 Isomer 2]
2. CCOC(=O)N1CCC2(CC(N3CCC(N4C[C@@H](F)C[C@@H]4C(=O)OC)CC3)C2)C1 (single isomer, unassigned) [2-135 Isomer 2]
3. CCOC(=O)N1CCC2(CC(N3CCC(n4cncn4)CC3)C2)C1 (single isomer, unassigned) [1-36 Isomer 2]

[83, 15, 73]

For each entry beneath this line, provide reported Emax.
1. CCOC(=O)N1CCC2(CC(N3CCC(N4C(=O)CC[C@H]4C)CC3)C2)C1 (single isomer, unassigned) [2-113 Isomer 2]
2. CCOC(=O)N1CCC2(CC(N3CCC(N4CCCC[C@@H]4C(=O)OC)CC3)C2)C1 (single isomer, unassigned) [4-15 Isomer 2]

100
82

// map CCOC(=O)N1CCC2(CC(N3CCC([C@@H]4CCCN4C(=O)NC4CC4)CC3)C2)C1 (single isomer, unassigned) [2-29 Isomer 2] to recorded Emax (system: UniProtKB P11229) 60

* * *

Kindly state Emax for each of the entries shown.
biological target: UniProt P11229; assay: Alphascreen Surefire phospho-ERK1/2 functional assay, M1; type: cell-based; settings: CHO, read-out: % Emax cf. ACh, M1, CHO cells stably expressing human M1; relative to ACh
Give bare numbers, in %.

compound	observed-result
CCOC(=O)N1CCC2(CC(N3CCC(c4nc(Cl)c[nH]4)CC3)C2)C1 (single isomer, unassigned) [1-2 Isomer 2]	93

Report Emax for every entry below.
1. CCOC(=O)N1CCC2(CC(N3CCC(c4c(C)ccnc4OC)CC3)C2)C1 (single isomer, unassigned) [3-11 Isomer 2]
2. COC(=O)N1CCC2(CC(N3CCC([C@@H]4CCCN4c4ccccn4)CC3)C2)C1 (single isomer, unassigned) [2-78 Isomer 2]
3. CCOC(=O)N1CCC2(CC(N3CCC(c4nccn4C(=O)OCC)CC3)C2)C1 (single isomer, unassigned) [1-8 Isomer 2]

[36, 11, 76]

* * *

molecular target: human muscarinic M4 receptor (Homo sapiens, UniProt P08173); construct: expressed in transfected cells; test: Alphascreen Surefire phospho-ERK1/2 functional assay, M4; type: cell-based; conditions: CHO cells stably expressing human M4; phospho-ERK1/2; * = variable results; read-out: pEC50 M4 (converted)
Sequence (P08173 whole entry): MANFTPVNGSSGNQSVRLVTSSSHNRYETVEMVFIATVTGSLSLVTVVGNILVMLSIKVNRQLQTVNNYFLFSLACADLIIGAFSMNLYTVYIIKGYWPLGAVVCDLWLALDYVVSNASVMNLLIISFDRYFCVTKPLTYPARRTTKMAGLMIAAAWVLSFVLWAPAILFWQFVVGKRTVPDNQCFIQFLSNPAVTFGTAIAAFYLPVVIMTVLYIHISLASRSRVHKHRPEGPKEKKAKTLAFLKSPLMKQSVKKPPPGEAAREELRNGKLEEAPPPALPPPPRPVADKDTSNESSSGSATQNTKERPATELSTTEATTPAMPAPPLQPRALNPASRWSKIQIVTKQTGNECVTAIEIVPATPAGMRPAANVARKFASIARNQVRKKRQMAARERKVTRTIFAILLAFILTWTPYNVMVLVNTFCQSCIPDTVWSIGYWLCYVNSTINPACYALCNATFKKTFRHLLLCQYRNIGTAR
endpoint-name: EC50 (nM)
Answers are plain numbers, in nM.

Some solved entries appear below for comparison.
compound	EC50 [nM]
CCOC(=O)N1CCC2(CC(N3CCC(c4nccc(N)n4)CC3)C2)C1 (single isomer, unassigned) [3-9 Isomer 2]	25.1
CCOC(=O)N1CCC2(CC(N3CCC(C4CCCN4C(=O)OCC)CC3)C2)C1 (single isomer, unassigned) [2-14 Isomer 2]	15.8
CCOC(=O)N1CCC2(CC(N3CCC(N4CC(F)(F)C[C@@H]4CO)CC3)C2)C1 (single isomer, unassigned) [2-107 Isomer 2]	6.31
CCOC(=O)N1CCC2(CC(N3CCC(N4C(=O)OC[C@@H]4C(C)C)CC3)C2)C1 (single isomer, unassigned) [2-123 Isomer 2]	316
CCOC(=O)N1CCC2(CC(N3CCC(c4c(C)ccnc4OC)CC3)C2)C1 (single isomer, unassigned) [3-11 Isomer 2]	25.1

Which measured EC50 value corresponds to CCOC(=O)N1CCC2(CC(N3CCC([C@@H]4CCCN4C(=O)N4CCOCC4)CC3)C2)C1 (single isomer, unassigned) [2-28 Isomer 2] ? 25.1

* * *

What Emax was measured for each of the following?
biological target: UniProt P20309; assay: Alphascreen Surefire phospho-ERK1/2 functional assay, M3; details: CHO, read-out: % Emax cf. ACh, M3, CHO cells stably expressing human M3; relative to ACh
Sequence (P20309 whole entry): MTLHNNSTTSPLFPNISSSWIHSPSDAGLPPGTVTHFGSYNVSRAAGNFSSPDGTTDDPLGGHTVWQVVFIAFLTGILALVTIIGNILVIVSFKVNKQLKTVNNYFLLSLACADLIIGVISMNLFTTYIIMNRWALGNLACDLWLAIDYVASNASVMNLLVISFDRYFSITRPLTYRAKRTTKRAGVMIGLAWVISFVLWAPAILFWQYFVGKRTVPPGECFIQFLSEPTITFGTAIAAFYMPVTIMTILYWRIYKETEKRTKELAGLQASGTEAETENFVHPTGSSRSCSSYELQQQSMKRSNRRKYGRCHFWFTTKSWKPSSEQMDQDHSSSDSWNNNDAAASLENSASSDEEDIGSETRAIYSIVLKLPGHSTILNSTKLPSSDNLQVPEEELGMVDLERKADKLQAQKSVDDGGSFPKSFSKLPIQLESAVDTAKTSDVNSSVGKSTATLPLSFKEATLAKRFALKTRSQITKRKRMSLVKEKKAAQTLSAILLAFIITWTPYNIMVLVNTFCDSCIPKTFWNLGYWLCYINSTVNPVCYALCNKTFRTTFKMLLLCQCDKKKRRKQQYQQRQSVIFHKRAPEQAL
Numbers only, in %.

Take a look at these entries with their results.
molecule	unit	Emax
CCOC(=O)N1CCC2(CC(N3CCC([C@@H]4CCCN4C(=O)N(C)Cc4ccccn4)CC3)C2)C1 (single isomer, unassigned) [2-63 Isomer 2]	%	4
CCOC(=O)N1CCC2(CC(N3CCC([C@@H]4CCCN4c4ccncc4)CC3)C2)C1 (single isomer, unassigned) [2-80 Isomer 2]	%	18
CCOC(=O)N1CCC2(CC(N3CCC(c4nccc(N)n4)CC3)C2)C1 (single isomer, unassigned) [3-9 Isomer 2]	%	4
CCOC(=O)N1CCC2(CC(N3CCC([C@@H]4CCCN4C(=O)C4CCC4)CC3)C2)C1 (single isomer, unassigned) [2-9 Isomer 2]	%	6
CCOC(=O)N1CCC2(CC(N3CCC(N4CCSCC4)CC3)C2)C1 (single isomer, unassigned) [4-12 Isomer 2]	%	14

Notebook entry, UniProt P20309 assay: Emax of COc1ncccc1C1CCN(C2CC3(CCN(C(=O)OCCF)C3)C2)CC1 (single isomer, unassigned) [3-5 Isomer 2] = ? 11

* * *

Exercise: state measured Emax for each of the compounds provided.
biological target: human muscarinic M2 receptor (Homo sapiens, UniProt P08172); experiment: Alphascreen Surefire phospho-ERK1/2 functional assay, M2; settings: CHO, read-out: % Emax cf. ACh, M2, CHO cells stably expressing human M2; relative to ACh
Sequence (P08172 whole entry): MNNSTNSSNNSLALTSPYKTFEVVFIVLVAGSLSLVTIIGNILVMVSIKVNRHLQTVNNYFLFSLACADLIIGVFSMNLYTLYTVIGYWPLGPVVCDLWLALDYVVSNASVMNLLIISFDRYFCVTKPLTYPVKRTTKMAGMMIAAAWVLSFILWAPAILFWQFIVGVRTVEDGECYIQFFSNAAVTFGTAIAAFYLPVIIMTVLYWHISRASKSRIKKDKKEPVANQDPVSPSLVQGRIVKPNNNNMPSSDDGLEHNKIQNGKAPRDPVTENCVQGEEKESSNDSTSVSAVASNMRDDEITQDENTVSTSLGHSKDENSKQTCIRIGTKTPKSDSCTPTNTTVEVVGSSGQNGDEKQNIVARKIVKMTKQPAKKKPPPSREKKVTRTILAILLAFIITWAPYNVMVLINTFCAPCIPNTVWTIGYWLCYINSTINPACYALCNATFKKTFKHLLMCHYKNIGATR
Numbers only, in %.

# count of solved cases: 2
compound	test-target	endpoint-name	observed-result
CCOC(=O)N1CCC2(CC(N3CCC(C4CCCN4C(=O)NOC)CC3)C2)C1 (single isomer, unassigned) [2-24 Isomer 2]	human muscarinic M2 receptor (Homo sapiens, UniProt P08172)	Emax	5
CCOC(=O)N1CCC2(CC(N3CCC([C@@H]4CCCN4C(=O)CCN)CC3)C2)C1 (single isomer, unassigned) [2-66 Isomer 2]	human muscarinic M2 receptor (Homo sapiens, UniProt P08172)	Emax	18

Now take the following compound into account.
What does the data say about its Emax? Entry: CCOC(=O)N1CCC2(CC(N3CCC(c4nccn4C)CC3)C2)C1 (single isomer, unassigned) [1-7 Isomer 2] 15

* * *

Molecular target: human muscarinic M1 receptor (Homo sapiens)
Sequence (P11229 1-460): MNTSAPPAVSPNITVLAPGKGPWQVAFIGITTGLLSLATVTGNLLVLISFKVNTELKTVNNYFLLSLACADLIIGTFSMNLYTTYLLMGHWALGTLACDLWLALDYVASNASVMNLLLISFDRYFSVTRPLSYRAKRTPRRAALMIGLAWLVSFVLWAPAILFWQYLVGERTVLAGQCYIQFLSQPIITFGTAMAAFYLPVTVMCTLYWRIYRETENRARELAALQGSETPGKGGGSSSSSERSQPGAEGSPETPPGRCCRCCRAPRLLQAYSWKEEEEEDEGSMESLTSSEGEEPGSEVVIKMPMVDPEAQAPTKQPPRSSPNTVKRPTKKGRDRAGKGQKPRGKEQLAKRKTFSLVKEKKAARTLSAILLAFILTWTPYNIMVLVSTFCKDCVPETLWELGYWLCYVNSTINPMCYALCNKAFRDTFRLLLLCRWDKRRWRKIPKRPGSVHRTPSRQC
Test: Alphascreen Surefire phospho-ERK1/2 functional assay, M1
Format: cell-based
Conditions: CHO cells stably expressing human M1; phospho-ERK1/2; * = variable results; read-out: pEC50 M1 (converted)
The label is Satisfied for EC50 below 400 nM and Not satisfied for EC50 equal to or exceeding 400 nM.

Record excerpt, results attached:
compound	qualitative-label
CCn1nccc1C1CCN(C2CC3(CCN(C(=O)OC)C3)C2)CC1 (single isomer, unassigned) [1-46 Isomer 2]	Not satisfied
CCOC(=O)N1CCC2(CC(N3CCC(N4CSC[C@@H]4C(=O)OC)CC3)C2)C1 (single isomer, unassigned) [2-97 Isomer 2]	Not satisfied
CCOC(=O)N1CCC2(CC(N3CCC([C@@H]4CCCN4C(=O)C4CC4)CC3)C2)C1 (single isomer, unassigned) [2-8 Isomer 2]	Not satisfied
CCOC(=O)N1CCC2(CC(N3CCC(N4CCCC[C@@H]4C(=O)NC)CC3)C2)C1 (single isomer, unassigned) [4-16 Isomer 2]	Not satisfied
CCOC(=O)N1CCC2(CC(N3CCC(c4nc(Cl)c(Cl)n4C)CC3)C2)C1 (single isomer, unassigned) [1-17 Isomer 2]	Not satisfied

Just wondering, is EC50 of COC(=O)N1CCC2(CC(N3CCC(n4cc(C)cn4)CC3)C2)C1 (single isomer, unassigned) [1-42 Isomer 2] below 400 nM? Satisfied

Note, next up: CCOC(=O)N1CCC2(CC(N3CCC([C@@H]4CCCN4C(=O)OCCOC)CC3)C2)C1 (single isomer, unassigned) [2-50 Isomer 2] Satisfied

Another: CCOC(=O)N1CCC2(CC(N3CCC([C@@H]4CCCN4CC(=O)N(C)C)CC3)C2)C1 (single isomer, unassigned) [2-73 Isomer 2] Not satisfied

Next compound up: CCOC(=O)N1CCC2(CC(N3CCC([C@@H]4CCCN4C(=O)C4CCC4)CC3)C2)C1 (single isomer, unassigned) [2-9 Isomer 2] Not satisfied

# repeat for CCOC(=O)N1CCC2(CC(N3CCC(c4cc[nH]c(=O)c4)CC3)C2)C1 (single isomer, unassigned) [3-16 Isomer 2] Not satisfied

Follow-up item: CCOC(=O)N1CCC2(CC(N3CCC(O)(c4ncc[nH]4)CC3)C2)C1 (single isomer, unassigned) [1-37 Isomer 2] Not satisfied
